Recorded values, source patent US20090227619A1.

Each entry below carries its recorded LD50.
System: Kunming mice;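 note: acute toxicity in Kunming mice grouped by sex, one intraperitoneal dose at five graded levels in Tween-80 plus 0.5% CMC-Na, deaths monitored over two weeks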
measurement conditions: mouse, in vivo, ip

Solved entries (count: 4):
[
  {
    "molecule": "O=C(O)c1cc2c3ccccc3n(Cc3ccccc3)c2cn1",
    "LD50": "142 to 189 mg/kg"
  },
  {
    "molecule": "CCOC(=O)c1cc2c([nH]c3ccccc32)c(C)n1 [Compound 11, ethyl 1-methyl-β-carboline-3-carboxylate]",
    "LD50": "159 to 211 mg/kg"
  },
  {
    "molecule": "CCOC(=O)c1cc2c3ccccc3n(Cc3ccccc3)c2cn1 [Compound 33, ethyl 9-benzyl-β-carboline-3-carboxylate]",
    "LD50": "211 to 274 mg/kg"
  },
  {
    "molecule": "OCc1cc2c3ccccc3n(Cc3ccccc3)c2cn1 [Compound 42, 9-benzyl-3-hydroxymethyl-β-carboline]",
    "LD50": "214 to 286 mg/kg"
  }
]

Pending molecule:
State, for Kunming mice, measured LD50 of the molecule listed here: O=C(O)c1cc2c3ccccc3n(CCCc3ccccc3)c2cn1 193 to 249 mg/kg
